Experiment: Viability qHTS for spleen associated tyrosine kinase inhibitor (SYKi) naive MV4-11 cells (AID 1963823); note: nearly all actives have a fitted effect of over 40% in size; note: potency is the fitted concentration of half-maximal effect
Conditions: MV4-11 AML viability, CellTiter-Glo luminescence, 72 h; series mostly up to 45 µM
Results filed as inconclusive are left out. Activity calls are given as the source filed them. Calls come from the whole dose curve; as a rule, active = well fitted cell-killing curve with a large enough effect; inconclusive = small, poorly fitted or top-dose-only effect, or effect the other way; inactive = no such curve, though single readings can be large or run the other way.
measuredEndpoint: Potency

The following compounds have reported results that may help.
CCNCCc1ccc(CN(CC)c2cc(OC)ccc2[C@@H]2CCc3cc(O)ccc3C2)cc1	2.35 µM (active)
COc1cc(C(C)C)c(Oc2cnc(N)nc2N)cc1I	10.3 µM (active)
CC1=CC(=O)C2(OC3OC(C)C(O)C(OC(=O)/C=C/c4ccccc4)C3O)C=COC(OC3OC(CO)C(O)C(O)C3O)C12 (centres undefined)	inactive
CCC(C)C(=O)Oc1cc(C)ccc1C1(COC(=O)C(C)C)CO1 (centres undefined)	2.86 µM (active)
CC[C@H](C)/C=C(C)/C=C/C1=CC2=C(Cl)C(=O)[C@](C)(O)[C@H](OC(C)=O)[C@H]2CO1	12.8 µM (active)

Prompt line: Output Potency of COc1ccc2c(c1)c(CC(=O)O)c(C)n2C(=O)c1ccc(Cl)cc1
Response line: inactive

Prompt line: Indicate the recorded Potency value for this compound: C=CC(C)(O)CC/C=C(\C)C(=O)OC1C(O)C(CO)OC(OC(=O)C23CCC(C)(C)CC2C2=CCC4C5(C)CCC(OC6OC(COC7OCC(OC(C)=O)C(O)C7OC7OC(COC(C)=O)C(O)C(O)C7OC(C)=O)C(O)C(O)C6OC6OCC(O)C(O)C6O)C(C)(C)C5CCC4(C)C2(C)C(O)C3O)C1OC1OCC(OC2OCC(O)C(OC3OCC(O)C(O)C3O)C2O)C(O)C1O (centres undefined)
Response line: 0.631 µM (active)

Prompt line: Identify measured Potency associated with O=C(O)c1ccc(S(=O)(=O)N(Cc2ccc(OC(F)(F)F)cc2)c2ncc(C(F)(F)F)cc2Cl)cc1
Response line: 20.6 µM (active)

Prompt line: Name the recorded Potency of the item C/C=C/c1ccc(O)c(OC)c1 in your answer.
Response line: inactive

Prompt line: Report Potency, nothing else, for this compound: O=C(NCc1ccc(OC(F)(F)F)cc1)C1c2ccccc2C(=O)N1C1CCOCC1 (centres undefined)
Response line: inactive

Prompt line: Specify reported Potency for the compound shown: CCN(Cc1cccnc1)C(=O)CN(c1ccc(OC)nc1)S(=O)(=O)c1ccccc1C
Response line: inactive

Prompt line: Retrieve Potency measured for CC[N+](C)(CC)CCOC(=O)C1c2ccccc2Oc2ccccc21 and print it.
Response line: inactive

Prompt line: Quote Potency reported for CCN(CC)C(=O)c1ccc(Nc2nc(OCC3CCCCC3)c3[nH]cnc3n2)cc1 please.
Response line: 1.03 µM (active)

Prompt line: Determine from records and report Potency for CC(C)=CCC(O)/C(C)=C/CO[C@@H]1O[C@H](CO)[C@@H](O)[C@H](O)[C@H]1O (some centres undefined)
Response line: inactive

Prompt line: Tell me measured Potency for CC(=O)Oc1c(C)c(C)c2c(c1C)CC[C@@](C)(CCC[C@H](C)CCC[C@H](C)CCCC(C)C)O2 please.
Response line: inactive

Prompt line: Output Potency of CCn1c(-c2nonc2N)nc2c(C#CC(C)(C)O)ncc(OC[C@H]3CCCNC3)c21
Response line: 16.6 µM (active)

Prompt line: Give Potency for CCCCC[C@H](O)C=C[C@H]1[C@H](O)CC(=O)[C@H]1CC=CCCCC(=O)O
Response line: 0.119 µM (active)

Prompt line: Query Potency for Cc1ccc(NS(=O)(=O)c2cc3c(cc2N[C@@H](C)CO)NC(=O)CC3)cc1Cl
Response line: 16.4 µM (active)

Prompt line: Please report the measured Potency for CC1C(=O)OCC2=CC[N+]3([O-])CCC(OC(=O)C(C)(O)C1(C)O)C23 (centres undefined)
Response line: inactive
